- Test system: Tocilizumab
- ASSAY PROCEDURE: Microtiter plate chromatography of resins: binding and elution of Tocilizumab
- CONDITION DESCRIPTION: fraction of injected protein bound; 0.5 mg/ml IgG in PBS pH 7.3
VALUE TYPE: Tocilizumab Bound (%)

CCSc1nnc(NC(=O)c2ccc3c(c2)ncn3CCCN)s1 [Ligand L12] :: 100
Cc1csc(NC(=O)c2ccc3c(c2)ncn3CCCN)n1 [Ligand L15] :: 100
NCCCn1c(=O)c(=O)[nH]c2cc(C(=O)Nc3nnc(-c4ccco4)s3)ccc21 [Ligand L28] :: 98
NCCOCCOCCn1cnc2cc(C(=O)Nc3nc(-c4ccccn4)cs3)ccc21 :: 100
Cn1nc(C(=O)Nc2ccc3c(c2)ncn3CCCN)c2ccccc21 [Ligand L01] :: 100
NCCCn1cnc2cc(C(=O)Nc3nc(-c4cccnc4)cs3)ccc21 [Ligand L46] :: 100
NCCOCCOc1ccc(C(=O)Nc2nnc(-c3ccco3)s2)cc1 [Ligand L37] :: 100
NCCCNc1ccc(C(=O)Nc2nc(-c3ccccn3)cs2)cn1 [Ligand L40] :: 99
Cn1c(CCCCCN)nc2cc(C(=O)Nc3nnc(-c4ccco4)s3)ccc21 [Ligand L31] :: 100
COc1nc2cc(C(=O)Nc3nnc(-c4ccco4)s3)ccc2n1CCCN [Ligand L45] :: 100
NCCCn1cnc2cc(C(=O)Nc3nnc(-c4ccc5c(c4)OCO5)s3)ccc21 [Ligand L09] :: 100
Cc1cnc(NC(=O)c2ccc3c(c2)ncn3CCCN)s1 [Ligand L17] :: 100
Cc1nnc(NC(=O)c2ccc3c(c2)ncn3CCCN)s1 [Ligand L14] :: 100
NCCCn1cnc2cc(C(=O)Nc3nccs3)ccc21 [Ligand L16] :: 100
N[C@@H](CCC(=O)NCCOCCOCCn1cnc2cc(C(=O)Nc3nnc(-c4ccco4)s3)ccc21)C(=O)NCCOCCOCCn1cnc2cc(C(=O)Nc3nnc(-c4ccco4)s3)ccc21 [Ligand L53] :: 100
NCCCn1cnc2cc(C(=O)Nc3nc4ccccc4s3)ccc21 [Ligand L10] :: 100
NCCCn1cnc2cc(C(=O)Nc3nc(-c4ccccn4)cs3)ccc21 [Ligand L23] :: 100
Cc1nc2cc(C(=O)Nc3nnc(-c4ccco4)s3)ccc2n1CCCN [Ligand L39] :: 100
NCCCn1cnc2cc(C(=O)Nc3nnc(-c4ccccc4)s3)ccc21 [Ligand L33] :: 100
NCCCn1cnc2cc(C(=O)Nc3nnc(C4CC4)s3)ccc21 [Ligand L35] :: 100
CCc1nc2cc(C(=O)Nc3nc(-c4ccccn4)cs3)ccc2n1CCCN [Ligand L43] :: 100
Cc1nsc(NC(=O)c2ccc3c(c2)ncn3CCCN)n1 [Ligand L36] :: 90
Cc1nc2cc(C(=O)Nc3nnc(-c4ccco4)s3)ccc2n1CCOCCOCCN :: 100
Cc1nc2cc(C(=O)Nc3nnc(-c4ccco4)s3)ccc2n1CCOCCOCCNC(=O)CC[C@H](N)C(=O)NCCOCCOCCn1c(C)nc2cc(C(=O)Nc3nnc(-c4ccco4)s3)ccc21 [Ligand L54] :: 100
Cn1nc(NC(=O)c2ccc3c(c2)ncn3CCCN)c2ccccc21 [Ligand L02] :: 100
NCCCNc1ccc(C(=O)Nc2nnc(-c3ccco3)s2)cn1 [Ligand L19] :: 100
NCCCn1cnc2cc(C(=O)Nc3nc4ccccc4o3)ccc21 [Ligand L08] :: 100
Cc1nc2cc(C(=O)Nc3nc(-c4ccccn4)cs3)ccc2n1CCCN [Ligand L42] :: 100
NCCCOc1ccc(C(=O)Nc2nnc(-c3ccco3)s2)cc1 [Ligand L20] :: 100
NCCCn1cnc2cc(C(=O)Nc3nnc(-c4ccncc4)s3)ccc21 [Ligand L21] :: 98
Cc1ccc(NC(=O)c2ccc3c(c2)ncn3CCCN)nn1 [Ligand L34] :: 85
Cn1nc(C(=O)Nc2ccc3c(c2)C(=O)N(CCCN)CCO3)c2ccccc21 [Ligand L03] :: 99
NCCCNc1ccc(C(=O)Nc2nnc(-c3ccco3)s2)cc1[N+](=O)[O-] [Ligand L18] :: 100
COc1ccc(NC(=O)c2nn(CCCN)c3ccccc23)cc1C(N)=O [Ligand L04] :: 100
NCCOCCOCCn1cnc2cc(C(=O)Nc3nnc(-c4ccco4)s3)ccc21 :: 100
NCCCn1cnc2cc(C(=O)Nc3nnc(-c4ccco4)s3)ccc21 [Ligand L05] :: 100
NCCCn1cnc2cc(NC(=O)c3cn4ccsc4n3)ccc21 [Ligand L30] :: 100
